Test system: Candida albicans (NCPF3179)
Test protocol: MIC, Candida albicans
Format: cell-based
Measurement conditions: Candida albicans, NCPF3179; value in parentheses; na = not active; read-out: Minimum inhibitory concentrations (MICs), C. albicans
Value type: MIC (µg/mL)

As a guide, the following entries are already answered.
| Smiles record | Test result |
| --- | --- |
| Cn1cc(NC(=O)c2cc(NC(=O)c3cc(/C=C/c4ccc5ccccc5n4)cn3C)cn2C)cc1C(=O)NCCN1CCOCC1 | 100 |
| CSc1ccc(/C=C/c2ccc3cc(C(=O)Nc4cc(C(=O)Nc5cc(C(=O)NCCN6CCOCC6)n(C)c5)n(C)c4)ccc3n2)cc1 | 100 |
| Cn1cc(NC(=O)c2cc(NC(=O)c3ccc(/C=C/c4cnc5ccccc5c4)cc3)cn2C)cc1C(=O)NCCN1CCOCC1 | 25 |
| CC(C)CCc1sc(NC(=O)c2cc(NC(=O)c3ccc(/C=C/c4cc5ccccc5nc4Cl)cc3)cn2C)nc1C(=O)NCCN1CCOCC1 | 100 |

a = COc1ccc(/C=C/c2ccc3cc(C(=O)Nc4cc(C(=O)Nc5cc(C(=O)NCCN6CCOCC6)n(C)c5)n(C)c4)ccc3n2)cc1
b = CSc1ccc(/C=C/c2ccc(C(=O)Nc3cc(C(=O)Nc4cc(C(=O)NCCN5CCOCC5)n(C)c4)n(C)c3)cn2)cc1
INPUT: Please indicate which entry, a or b , has the lower recorded MIC value. Which one? Tell me its label.
OUTPUT: b
(b: 50 µg/mL, a: 100 µg/mL)
